pIC50 reference
target_entity: TNK1 (Homo sapiens, UniProt Q13470)
Sequence (Q13470 1-666): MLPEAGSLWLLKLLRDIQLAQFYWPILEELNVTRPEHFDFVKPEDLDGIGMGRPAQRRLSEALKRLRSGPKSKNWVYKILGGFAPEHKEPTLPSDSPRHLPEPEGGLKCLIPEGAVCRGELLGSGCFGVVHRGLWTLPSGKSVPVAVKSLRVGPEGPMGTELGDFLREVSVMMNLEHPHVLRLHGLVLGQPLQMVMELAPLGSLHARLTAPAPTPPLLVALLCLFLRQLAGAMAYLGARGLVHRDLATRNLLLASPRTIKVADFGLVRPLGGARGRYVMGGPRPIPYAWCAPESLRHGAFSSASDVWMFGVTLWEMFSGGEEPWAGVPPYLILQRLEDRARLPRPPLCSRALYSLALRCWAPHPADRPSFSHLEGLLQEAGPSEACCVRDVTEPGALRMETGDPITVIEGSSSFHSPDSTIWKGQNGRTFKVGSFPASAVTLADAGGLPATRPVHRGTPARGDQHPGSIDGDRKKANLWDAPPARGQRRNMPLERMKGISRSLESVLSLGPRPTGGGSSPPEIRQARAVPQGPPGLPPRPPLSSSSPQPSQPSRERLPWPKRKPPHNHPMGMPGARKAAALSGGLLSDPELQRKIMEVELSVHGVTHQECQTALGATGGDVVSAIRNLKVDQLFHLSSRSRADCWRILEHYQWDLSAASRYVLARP
experiment: RBC HotSpot Kinase Assay
Format: biochemical
Parameters: purchased Reaction Biology Corp., Malvern, Pa
condition_label: ATP 10 μM
pIC50: −log10 of the molar value.

Example entries and their recorded answers appear below.
CC(C)Oc1cc(N2CCN(C)CC2)ccc1Nc1ncc(Cl)c(Nc2cccnc2N(C)C)n1 [compound 4] ... 7.30 to 7.82
COc1cc(N2CCN(C)CC2)c(Cl)cc1Nc1ncc(Cl)c(Nc2cccnc2N2CCCCC2=O)n1 [Example No. 19] ... 7.82 to 8.30
COc1cc(N2CCN(C)CC2)c(C)cc1Nc1ncc(C(C)=O)c(Nc2cccnc2N(C)C)n1 [Example No. 12] ... 7.30 to 7.82
COc1cc(N2CCN(C)CC2)c(C)cc1Nc1ncc(Cl)c(Nc2cccnc2N2CCCCC2)n1 [Example No. 14] ... 7.30 to 7.82
COc1cc(N2CCN(C)CC2)c(C)cc1Nc1ncc(Br)c(Nc2cccnc2N(C)C)n1 [compound 10] ... > 8.30
COc1cc(N2CCN(C)CC2)c(C)cc1Nc1ncc(Cl)c(Nc2cccnc2N2CCCCC2=O)n1 [Example No. 15] ... 7.30 to 7.82

Prompt: Name the recorded pIC50 for CN1CCN(c2ccc(Nc3ncc(Cl)c(Nc4cccnc4N4CCCC4=O)n3)cc2)CC1 [compound 1] .
Response: > 8.30

Prompt: Look up pIC50: CN1CCN(c2c(Cl)cc(Nc3ncc(Cl)c(Nc4cccnc4N4CCCC4=O)n3)c3c2CCCO3)CC1 [Example No. 26]
Response: > 8.30
